# System: U87 glioblastoma cell line
# assay_procedure: In-vitro cell survival assay (Alamar blue), U87
# Format: cell-based
# reported_conditions: 24 h; U87, one day after compound addition
quantity_measured: EC50 (µM)

[[record]]
molecule = "CC(C)(CO)NC(=O)c1cccc(Nc2nccc(Nc3ccc4ncsc4c3)n2)c1 [drawing 408]"
reported_measurement = 17

[[record]]
molecule = "CC(C)c1nc(Nc2ccc(C(=O)NC3CCCCC3)cc2)nc(Nc2ccc3ncsc3c2)n1 [drawing 456]"
reported_measurement = 45

[[record]]
molecule = "Nc1nc(Nc2ccc(C(=O)NCCc3ccncc3)cc2)cc(Nc2ccc3ncsc3c2)n1 [drawing 417]"
reported_measurement = 17

[[record]]
molecule = "Nc1nc(N)n(-c2ccccc2)/c(=N/c2ccccc2)n1 [drawing 395]"
reported_measurement = 33


###

# measured_target: ROS (Homo sapiens)
# Sequence (P08922 28-2347): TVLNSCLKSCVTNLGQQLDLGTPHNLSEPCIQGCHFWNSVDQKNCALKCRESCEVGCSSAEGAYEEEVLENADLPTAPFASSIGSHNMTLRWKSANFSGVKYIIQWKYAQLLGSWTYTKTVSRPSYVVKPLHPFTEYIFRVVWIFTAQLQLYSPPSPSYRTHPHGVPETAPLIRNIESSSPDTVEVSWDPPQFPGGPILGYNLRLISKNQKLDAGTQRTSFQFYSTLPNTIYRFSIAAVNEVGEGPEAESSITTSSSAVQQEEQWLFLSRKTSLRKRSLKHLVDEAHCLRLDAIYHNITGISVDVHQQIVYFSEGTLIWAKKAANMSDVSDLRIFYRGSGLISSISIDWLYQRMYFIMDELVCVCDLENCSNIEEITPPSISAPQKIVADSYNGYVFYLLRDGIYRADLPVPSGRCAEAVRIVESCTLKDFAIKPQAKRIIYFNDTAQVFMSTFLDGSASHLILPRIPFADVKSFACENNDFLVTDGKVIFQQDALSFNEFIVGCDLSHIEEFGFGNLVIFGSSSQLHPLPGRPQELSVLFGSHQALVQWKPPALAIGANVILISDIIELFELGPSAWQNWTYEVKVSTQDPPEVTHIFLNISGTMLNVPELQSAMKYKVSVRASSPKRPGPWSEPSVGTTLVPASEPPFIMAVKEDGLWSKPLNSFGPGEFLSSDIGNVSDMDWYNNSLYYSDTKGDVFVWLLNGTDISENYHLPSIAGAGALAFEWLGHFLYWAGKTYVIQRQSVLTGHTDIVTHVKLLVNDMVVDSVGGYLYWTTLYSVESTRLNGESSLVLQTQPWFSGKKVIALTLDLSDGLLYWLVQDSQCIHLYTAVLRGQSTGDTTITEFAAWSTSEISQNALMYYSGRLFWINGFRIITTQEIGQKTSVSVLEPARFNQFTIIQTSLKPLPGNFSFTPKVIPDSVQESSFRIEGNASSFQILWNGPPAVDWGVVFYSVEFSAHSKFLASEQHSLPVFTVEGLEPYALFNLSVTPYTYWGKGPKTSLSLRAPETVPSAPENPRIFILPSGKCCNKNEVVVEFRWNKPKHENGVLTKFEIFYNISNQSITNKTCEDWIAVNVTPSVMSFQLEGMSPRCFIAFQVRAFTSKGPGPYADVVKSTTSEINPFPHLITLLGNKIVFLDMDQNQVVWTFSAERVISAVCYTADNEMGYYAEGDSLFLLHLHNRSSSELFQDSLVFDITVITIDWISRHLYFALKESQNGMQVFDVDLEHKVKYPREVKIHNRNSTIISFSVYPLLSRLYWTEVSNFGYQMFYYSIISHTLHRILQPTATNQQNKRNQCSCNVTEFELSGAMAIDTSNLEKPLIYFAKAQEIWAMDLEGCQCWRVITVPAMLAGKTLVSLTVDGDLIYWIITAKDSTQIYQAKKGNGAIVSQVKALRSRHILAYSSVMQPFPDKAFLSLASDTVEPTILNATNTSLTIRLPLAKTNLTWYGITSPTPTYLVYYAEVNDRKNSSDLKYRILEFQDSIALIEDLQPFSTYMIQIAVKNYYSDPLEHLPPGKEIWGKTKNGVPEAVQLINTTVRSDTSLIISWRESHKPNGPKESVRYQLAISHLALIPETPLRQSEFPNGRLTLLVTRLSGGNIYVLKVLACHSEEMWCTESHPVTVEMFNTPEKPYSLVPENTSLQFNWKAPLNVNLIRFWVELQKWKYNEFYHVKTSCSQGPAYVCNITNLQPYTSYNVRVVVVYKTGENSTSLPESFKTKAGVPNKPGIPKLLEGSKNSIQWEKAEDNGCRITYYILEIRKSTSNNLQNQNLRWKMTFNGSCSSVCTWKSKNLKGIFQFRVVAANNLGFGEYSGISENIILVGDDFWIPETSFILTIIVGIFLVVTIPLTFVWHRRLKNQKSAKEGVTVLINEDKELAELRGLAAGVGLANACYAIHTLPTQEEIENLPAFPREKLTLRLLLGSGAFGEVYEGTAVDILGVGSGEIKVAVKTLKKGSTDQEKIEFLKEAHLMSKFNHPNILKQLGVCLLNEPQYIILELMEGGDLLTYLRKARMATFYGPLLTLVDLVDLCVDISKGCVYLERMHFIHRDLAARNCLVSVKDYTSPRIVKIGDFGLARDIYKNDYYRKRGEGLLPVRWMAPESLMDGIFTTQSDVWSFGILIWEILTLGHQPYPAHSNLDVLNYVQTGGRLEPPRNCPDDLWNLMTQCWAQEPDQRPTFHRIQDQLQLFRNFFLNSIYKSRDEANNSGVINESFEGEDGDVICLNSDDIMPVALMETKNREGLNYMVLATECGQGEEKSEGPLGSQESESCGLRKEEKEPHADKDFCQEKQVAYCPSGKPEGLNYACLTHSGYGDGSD
# assay_procedure: In vitro ROS enzymatic reaction assay (HTRF, Cisbio)
# Type: biochemical
# Set-up: ROS or EGFR enzyme, 0.008 ng/ul
# reported_conditions: ROS kinase, compound at 5 uM; read-out: Kinase Inhib. 5 uM (%)
quantity_measured: inhibition at 5 µM (%)

[[record]]
compound = "O=C(NCC1CCCO1)c1cccc(Nc2nccc(Nc3ccc4ncsc4c3)n2)c1 (stereo not drawn)"
unit_annotation = "%"
reported_measurement = 101

[[record]]
compound = "O=C(c1cccc(Nc2ncc(Cl)c(Nc3ccc4ncsc4c3)n2)c1)N1CCCCC1 [drawing 328]"
unit_annotation = "%"
reported_measurement = 100

[[record]]
compound = "Nc1nc(Nc2ccc(C(=O)NCc3ccco3)cc2)cc(Nc2ccc3ncsc3c2)n1 [drawing 238]"
unit_annotation = "%"
reported_measurement = 49

[[record]]
compound = "Cc1cccc(Nc2nccc(Nc3cccc(C(=O)Nc4ccc(F)cc4)c3)n2)c1 [drawing 245]"
unit_annotation = "%"
reported_measurement = 47.3

[[record]]
compound = "Brc1cccc(Nc2nccc(Nc3ccc4ncsc4c3)n2)c1 [drawing 305]"
unit_annotation = "%"
reported_measurement = 90

[[record]]
compound = "Cc1cccc(Nc2nccc(Nc3cccc(C(=O)NC4CCN(C)CC4)c3)n2)c1 [drawing 285]"
unit_annotation = "%"
reported_measurement = 98.6

[[record]]
compound = "O=C(c1cccc(Nc2nccc(Nc3ccc4ncsc4c3)n2)c1)N1CCCCCC1 [drawing 284]"
unit_annotation = "%"
reported_measurement = 100

[[record]]
compound = "Cc1cccc(Nc2nccc(Nc3cccc(C(=O)N(C)CCCN(C)C)c3)n2)c1 [drawing 288]"
unit_annotation = "%"
reported_measurement = 98.6

[[record]]
compound = "CN1CCN(C(=O)c2ccc(Nc3ncc(Cl)c(Nc4ccc5ncsc5c4)n3)cc2)CC1 [drawing 307]"
unit_annotation = "%"
reported_measurement = 92.2


###

Entries and their measured pEC50 follow.
# Tested on: HeLa cervical cancer cell line
# assay_procedure: In-vitro cell survival assay (Alamar blue), HeLa
# Assay type: cell-based
# reported_conditions: Homo sapiens, 24 h, one day after compound addition
pEC50: −log10 of the molar value.
quantity_measured: pEC50

[[record]]
compound = "O=C1NCCN1CCN1C(=O)c2ccccc2N[C@H]1c1ccccc1 [drawing 391]"
quantity_measured = "pEC50"
qual = "<"
reported_measurement = 4.00

[[record]]
compound = "CN1CCN(C(=O)c2ccc(Nc3ncc(Cl)c(Nc4ccc5ncsc5c4)n3)cc2)CC1 [drawing 444]"
quantity_measured = "pEC50"
qual = "="
reported_measurement = 4.92

[[record]]
compound = "COc1ccc(N/C=C2\\C(=O)NN=C2c2ccccc2)cc1 [drawing 369]"
quantity_measured = "pEC50"
qual = "="
reported_measurement = 4.00

[[record]]
compound = "O=C(c1cccc(-c2noc(-c3n[nH]c4c3CCCC4)n2)c1)N1CCCCC1 [drawing 385]"
quantity_measured = "pEC50"
qual = "<"
reported_measurement = 4.00

[[record]]
compound = "Cc1cccc(Nc2nccc(Nc3cccc(C(=O)NC4CCN(C)CC4)c3)n2)c1 [drawing 422]"
quantity_measured = "pEC50"
qual = "="
reported_measurement = 4.60

[[record]]
compound = "Clc1nccc(Nc2cc(C3CC3)[nH]n2)n1 [drawing 435]"
quantity_measured = "pEC50"
qual = "="
reported_measurement = 4.35

[[record]]
compound = "COc1ccc(Nc2nc(N(C)CCO)nc3c2cnn3-c2ccccc2)cc1 [drawing 387]"
quantity_measured = "pEC50"
qual = "="
reported_measurement = 5.15

[[record]]
compound = "Cc1nc2cc(C(=O)N[C@H](c3ccccc3)c3cccnc3)ccc2[nH]1 [drawing 398]"
quantity_measured = "pEC50"
qual = "<"
reported_measurement = 4.00

[[record]]
compound = "CC(C)c1nc(Nc2ccc(C(=O)N3CCCC3)cc2)nc(Nc2ccc3ncsc3c2)n1 [drawing 457]"
quantity_measured = "pEC50"
qual = "="
reported_measurement = 5.40


###

Entries and their measured EC50 follow.
# Tested on: U118 glioblastoma cell line
# assay_procedure: In-vitro cell survival assay (Alamar blue), U118
# Format: cell-based
# reported_conditions: 24 h; U118, one day after compound addition
quantity_measured: EC50 (µM)

[[record]]
compound = "COc1cccc(Nc2nc(N)c(C(=O)c3c(C)[nH]c4ccccc34)s2)c1 [drawing 384]"
measured_target = "U118 glioblastoma cell line"
quantity_measured = "EC50"
qual = "="
reported_measurement = 16

[[record]]
compound = "O=C(c1ccccc1)n1nc(-c2ccco2)nc1NCc1ccccc1"
measured_target = "U118 glioblastoma cell line"
quantity_measured = "EC50"
qual = ">"
reported_measurement = 100

[[record]]
compound = "O=C(CCn1ccc2ccccc21)Nc1ccc(F)cc1 [drawing 475]"
measured_target = "U118 glioblastoma cell line"
quantity_measured = "EC50"
qual = ">"
reported_measurement = 100

[[record]]
compound = "CC(=O)N[C@@H]1CCN(C(=O)c2cccc(Nc3cc(N(C)c4cccc(C)c4)ncn3)c2)C1 [drawing 378]"
measured_target = "U118 glioblastoma cell line"
quantity_measured = "EC50"
qual = ">"
reported_measurement = 100

[[record]]
compound = "C[C@@H](Oc1cc(-c2cnn(C3CCNCC3)c2)cnc1N)c1c(Cl)ccc(F)c1Cl [drawing 491]"
measured_target = "U118 glioblastoma cell line"
quantity_measured = "EC50"
qual = "="
reported_measurement = 13

[[record]]
compound = "NS(=O)(=O)c1ccc(CCNC(=O)c2cc(-c3cccs3)nc3ccccc23)cc1 [drawing 358]"
measured_target = "U118 glioblastoma cell line"
quantity_measured = "EC50"
qual = "="
reported_measurement = 29

[[record]]
compound = "COc1ccc(NC(=O)CCn2ccc3ccccc32)cc1 [drawing 474]"
measured_target = "U118 glioblastoma cell line"
quantity_measured = "EC50"
qual = ">"
reported_measurement = 100

[[record]]
compound = "O=C(COc1ccccc1)NCC(c1cccs1)S(=O)(=O)c1ccc(Cl)cc1 (stereo not drawn) [drawing 427]"
measured_target = "U118 glioblastoma cell line"
quantity_measured = "EC50"
qual = "="
reported_measurement = 45

[[record]]
compound = "O=c1c(O)c(-c2ccc(O)c(O)c2)oc2cc(O)cc(O)c12 [drawing 406]"
measured_target = "U118 glioblastoma cell line"
quantity_measured = "EC50"
qual = "="
reported_measurement = 33

[[record]]
compound = "O=C(CC1=Nc2cccc3cccc(c23)NC1=O)NCc1cccc(I)c1 [drawing 483]"
measured_target = "U118 glioblastoma cell line"
quantity_measured = "EC50"
qual = "="
reported_measurement = 51

[[record]]
compound = "O=C(NCc1ccco1)c1cccc(Nc2nccc(Nc3ccc4ncsc4c3)n2)c1 [drawing 376]"
measured_target = "U118 glioblastoma cell line"
quantity_measured = "EC50"
qual = "="
reported_measurement = 18

[[record]]
compound = "Clc1ccc2nc(NCc3ccccn3)nc(-c3ccccc3)c2c1 [drawing 357]"
measured_target = "U118 glioblastoma cell line"
quantity_measured = "EC50"
qual = ">"
reported_measurement = 100

[[record]]
compound = "CN(C)CC(C)(C)CNC(=O)c1cccc(Nc2nccc(Nc3ccc4ncsc4c3)n2)c1 [drawing 413]"
measured_target = "U118 glioblastoma cell line"
quantity_measured = "EC50"
qual = "="
reported_measurement = 76

[[record]]
compound = "COc1cccc(Nc2cc(Nc3cccc(C(=O)N4CCN(C(C)=O)CC4)c3)nc(N)n2)c1 [drawing 377]"
measured_target = "U118 glioblastoma cell line"
quantity_measured = "EC50"
qual = "="
reported_measurement = 91

[[record]]
compound = "Cc1cccc(Nc2nccc(Nc3cccc(C(=O)Nc4ccc(F)cc4)c3)n2)c1 [drawing 382]"
measured_target = "U118 glioblastoma cell line"
quantity_measured = "EC50"
qual = "="
reported_measurement = 30


###

# Tested on: U87 glioblastoma cell line
# assay_procedure: In-vitro cell survival assay (Alamar blue), U87
# Assay type: cell-based
# reported_conditions: 24 h; U87, one day after compound addition
pEC50: −log10 of the molar value.
quantity_measured: pEC50

[[record]]
molecule = "Nc1nc(Nc2ccc(C(=O)NCc3ccco3)cc2)cc(Nc2ccc3ncsc3c2)n1 [drawing 375]"
qual = "="
reported_measurement = 4.49

[[record]]
molecule = "Cc1cccc(Nc2nccc(Nc3cccc(C(=O)NCc4ccccc4F)c3)n2)c1 [drawing 412]"
qual = "="
reported_measurement = 4.96

[[record]]
molecule = "CC(C)c1nc(Nc2ccc(C(=O)N3CCCC3)cc2)nc(Nc2ccc3ncsc3c2)n1 [drawing 457]"
qual = "="
reported_measurement = 4.52

[[record]]
molecule = "CC(C)c1nc(Nc2ccc3ncsc3c2)nc(N2CCOCC2)n1 [drawing 452]"
qual = "<"
reported_measurement = 4.00

[[record]]
molecule = "CC(C)c1nc(Nc2ccc(C(=O)N3CCOCC3)cc2)nc(Nc2ccc3ncsc3c2)n1 [drawing 460]"
qual = "<"
reported_measurement = 4.00

[[record]]
molecule = "Nc1nc(Nc2ccc(C(=O)N3CCCCCC3)cc2)cc(Nc2ccc3ncsc3c2)n1 [drawing 409]"
qual = "="
reported_measurement = 4.60

[[record]]
molecule = "Cc1[nH]c2nc(NCc3cccc([N+](=O)[O-])c3)nn2c(=O)c1Cc1ccccc1 [drawing 359]"
qual = "="
reported_measurement = 4.35

[[record]]
molecule = "Cc1ccc(Cn2c(NCc3nc4ccccc4n3C)nc3ccccc32)cc1 [drawing 355]"
qual = "<"
reported_measurement = 4.00

[[record]]
molecule = "CCC(C)(C)NC(=O)c1cccc(Nc2nccc(Nc3ccc4ncsc4c3)n2)c1 [drawing 380]"
qual = "="
reported_measurement = 4.66

[[record]]
molecule = "Cc1cccc(Nc2nccc(Nc3cccc(C(=O)NCCCN4CCOCC4)c3)n2)c1 [drawing 416]"
qual = "="
reported_measurement = 4.00

[[record]]
molecule = "Cc1nc2cc(C(=O)N[C@H](c3ccccc3)c3cccnc3)ccc2[nH]1 [drawing 398]"
qual = "<"
reported_measurement = 4.00

[[record]]
molecule = "O=C(NNc1cc(C(F)(F)F)ccc1Cl)c1cccnc1Oc1ccccc1 [drawing 390]"
qual = "="
reported_measurement = 4.02

[[record]]
molecule = "Clc1nccc(Nc2cc(C3CC3)[nH]n2)n1 [drawing 435]"
qual = "="
reported_measurement = 4.54

[[record]]
molecule = "CC(C)c1nc(Nc2ccc(C(=O)NCc3ccccc3)cc2)nc(Nc2ccc3ncsc3c2)n1 [drawing 459]"
qual = "="
reported_measurement = 4.00

[[record]]
molecule = "O=C1c2ccccc2C(=O)N1C[C@H](O)Cn1nc(-c2cccs2)c2ccccc2c1=O [drawing 405]"
qual = "<"
reported_measurement = 4.00

[[record]]
molecule = "O=c1c(O)c(-c2ccc(O)c(O)c2)oc2cc(O)cc(O)c12 [drawing 406]"
qual = "="
reported_measurement = 4.44

[[record]]
molecule = "NS(=O)(=O)c1ccc(CCNC(=O)c2cc(-c3cccs3)nc3ccccc23)cc1 [drawing 358]"
qual = "<"
reported_measurement = 4.00

[[record]]
molecule = "Cc1cccc(Nc2ccnc(Nc3cccc(C(=O)N4CC=CCC4)c3)n2)c1 [drawing 371]"
qual = "="
reported_measurement = 4.77

[[record]]
molecule = "O=C(NC[C@H]1Cc2cc(-c3cncnc3)cc(Cl)c2O1)c1cccc(Cn2cccn2)c1"
qual = "<"
reported_measurement = 4.00

[[record]]
molecule = "O=C(NCc1cccs1)c1cccc(Nc2nccc(Nc3ccc4ncsc4c3)n2)c1 [drawing 410]"
qual = "="
reported_measurement = 4.60

[[record]]
molecule = "COc1cccc(Nc2nc(N)c(C(=O)c3c(C)[nH]c4ccccc34)s2)c1 [drawing 384]"
qual = "="
reported_measurement = 4.82

[[record]]
molecule = "Cn1c(=O)c2c(nc3n(CCO)c(-c4ccccc4)cn23)n(C)c1=O [drawing 402]"
qual = "<"
reported_measurement = 4.00

[[record]]
molecule = "O=C(O)c1ccc(Nc2ncc(Cl)c(Nc3ccc4ncsc4c3)n2)cc1 [drawing 445]"
qual = "<"
reported_measurement = 4.00

[[record]]
molecule = "CN(C)CC(C)(C)CNC(=O)c1cccc(Nc2nccc(Nc3ccc4ncsc4c3)n2)c1 [drawing 413]"
qual = "="
reported_measurement = 4.49

[[record]]
molecule = "CC(=O)N[C@@H]1CCN(C(=O)c2cccc(Nc3cc(N(C)c4cccc(C)c4)ncn3)c2)C1 [drawing 378]"
qual = "<"
reported_measurement = 4.00

[[record]]
molecule = "O=C(O)c1cccc(Nc2ncc(Cl)c(Nc3ccc4ncsc4c3)n2)c1 [drawing 462]"
qual = "<"
reported_measurement = 4.00

[[record]]
molecule = "c1cc(Nc2nccc(Nc3ccc4ncsc4c3)n2)cc(C2CCNCC2)c1 [drawing 440]"
qual = "="
reported_measurement = 4.46

[[record]]
molecule = "O=C(c1cccc(Nc2nccc(Nc3ccc4ncsc4c3)n2)c1)N1CCCCC1 [drawing 438]"
qual = "="
reported_measurement = 4.70

[[record]]
molecule = "NC(=O)c1c(NC(=O)[C@H]2CC(=O)N(c3ccccc3)C2)sc2c1CCCC2 [drawing 356]"
qual = "<"
reported_measurement = 4.00

[[record]]
molecule = "NC1CCN(C(=O)c2cccc(Nc3ncc(Cl)c(Nc4ccc5ncsc5c4)n3)c2)CC1 [drawing 469]"
qual = "="
reported_measurement = 4.46

[[record]]
molecule = "CC(C)CN(CC(C)C)C(=O)c1cccc(Nc2nccc(Nc3ccc4ncsc4c3)n2)c1 [drawing 424]"
qual = "="
reported_measurement = 4.77

[[record]]
molecule = "Cc1ccc(F)cc1S(=O)(=O)Nc1cccc(C(=O)OCC(=O)NC2CCCCC2)c1 [drawing 404]"
qual = "="
reported_measurement = 4.48

[[record]]
molecule = "O=C(NC[C@@H]1CCCO1)c1cccc(Nc2nccc(Nc3ccc4ncsc4c3)n2)c1"
qual = "="
reported_measurement = 4.80

[[record]]
molecule = "CC(C)c1nc(Nc2ccc(C(=O)N3CCN(C)CC3)cc2)nc(Nc2ccc3ncsc3c2)n1 [drawing 458]"
qual = "="
reported_measurement = 4.46

[[record]]
molecule = "O=C(c1cccc(Nc2nccc(Nc3ccc4ncsc4c3)n2)c1)N1CCCCCC1 [drawing 421]"
qual = "="
reported_measurement = 4.60

